Entry source: patent US12741974B2

Each entry below carries its reported CC50.
Test system: BALB/3T3 (normal murine fibroblasts)
Experiment: In vitro cytotoxicity test on normal cells, SRB assay, 72 h incubation with compound
Assay type: cell-based
Settings: read-out: IC50 BALB/3T3

- COMPOUND: "CC[C@@H](C(=O)[C@@H](C)[C@@H](O)[C@H](C)[C@@H]1O[C@@H]([C@@H](CC)C(=O)O)CC[C@@H]1C)[C@H]1O[C@]2(C=C[C@H](NC(=O)C(C)C)[C@]3(CC[C@@](C)([C@H]4CC[C@](O)(CC)[C@H](C)O4)O3)O2)[C@H](C)C[C@@H]1C [(10 epi), reference compound]"
  CC50: "3800 nM"
- COMPOUND: "CCOC(=O)N[C@H]1C=C[C@]2(O[C@H]([C@@H](CC)C(=O)[C@@H](C)[C@@H](O)[C@H](C)[C@@H]3O[C@@H]([C@@H](CC)C(=O)O)CC[C@@H]3C)[C@@H](C)C[C@H]2C)O[C@@]12CC[C@@](C)([C@H]1CC[C@](O)(CC)[C@H](C)O1)O2 [(19 epi), reference compound]"
  CC50: "1000 nM"
- COMPOUND: "CC[C@@H](C(=O)[C@@H](C)[C@@H](O)[C@H](C)[C@@H]1O[C@@H]([C@@H](CC)C(=O)O)CC[C@@H]1C)[C@H]1O[C@]2(C=C[C@H](NC(=O)CCCCl)[C@]3(CC[C@@](C)([C@H]4CC[C@](O)(CC)[C@H](C)O4)O3)O2)[C@H](C)C[C@@H]1C [(12 epi), reference compound]"
  CC50: "7300 nM"
- COMPOUND: "CC[C@@H](C(=O)[C@@H](C)[C@@H](O)[C@H](C)[C@@H]1O[C@@H]([C@@H](CC)C(=O)O)CC[C@@H]1C)[C@H]1O[C@]2(C=C[C@H](NC(=O)c3ccccc3)[C@]3(CC[C@@](C)([C@H]4CC[C@](O)(CC)[C@H](C)O4)O3)O2)[C@H](C)C[C@@H]1C [(15 epi), reference compound]"
  CC50: "1000 nM"
